Entry source: patent US20260207718A1

Experiment: ATB200-04 trial: population PK exposure matching of adolescents to adults
Assay type: in vivo, human
Conditions: human, plasma, po, 260 mg, adolescent Subject 3; 260 mg; Week 52; 64.6 kg; read-out: individual predicted Cmax
measure.name: Cmax (µg/mL)
Entry rule: numbers only, all in µg/mL.

Query :: Return reported Cmax; argument: CCCCN1C[C@H](O)[C@@H](O)[C@H](O)[C@H]1CO
Result :: 2.17

* * *

Assay: ATB200-04 trial: population PK exposure matching of adolescents to adults
Assay type: in vivo, human
Conditions: human, plasma, po, miglustat, predicted; Adolescents N=8; read-out: Cmax, Mean
measure.name: Cmax (ng/mL)
Entry rule: numbers only, all in ng/mL.

Query :: Return reported Cmax; argument: CCCCN1C[C@H](O)[C@@H](O)[C@H](O)[C@H]1CO
Result :: 2160
